Where do these numbers come from? They come from patent US20110262446A1.

Molecular target: T1, IGF-II (amino acids 1-67) (human, UniProt P01344 25-91)
T1 construct: mature; also called IGF-II (67aa); IGF2
T1 sequence (P01344 25-91): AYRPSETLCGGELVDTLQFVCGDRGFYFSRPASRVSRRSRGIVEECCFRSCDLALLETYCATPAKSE
Test: SPR (Biacore T100): IgG captured on Protein G', ligand bound, then BP injected; competitor BP2
attributeMeasured: competition score (0 = does not compete significantly, 5 = competes strongly) (score 0-5)
Kindly provide the numeric value in score 0-5 only, without the unit symbol.

Some solved cases for reference:
### Prompt Using the record for M0072-G06 IgG (antibody, V domains shown) VH: EVQLLESGGGLVQPGGSLRLSCAASGFTFSEYVMWWVRQAPGKGLEWVSVISPSGGYTVYADSVKGRFTISRDNSKNTLYLQMNSLRAEDTAVYYCARDRGGATTLDYWGQGTLVTVSS VL: DIQMTQSPSTLSASVGDRVTITCRASQTISSWLAWYQQKPGKAPKLMIYKAASLGSEVPSRFSGSGSGTEFTLTISSLQPEDFSTYYCQQYKTYPVTFGQGTRLEIK , report its competition score (0 = does not compete significantly, 5 = competes strongly).
### Response 2

### Prompt What do you get for M0063-F02 IgG (antibody, V domains shown, IgG form of the Fab; Variable domains as printed for the Fab (LV with its leading Q)) VH: EVQLLESGGGLVQPGGSLRLSCAASGFTFSKYEMDWVRQAPGKGLEWVSVISSSGGGTIYADSVKGRFTISRDNSKNTLYLQMNSLRAEDTAMYYCARGRTLYGGAFDIWGQGTMVTVSS VL: DIQMTQSPSSLSASVGDRVTITCRASQPINTYLNWYQQRPGKAPRILIYTSSTLQSGVPSRFSGSGSGTDFTLTISSVQPEDFATYYCQQSYSFPLTFGGGTKVEIK ?
### Response 1

From here, focus on the item given below.
### Prompt Using the record for M0070-H08 IgG (antibody, V domains shown) VH: EVQLLESGGGLVQPGGSLRLSCAASGFTFSRYWMIWVRQAPGKGLEWVSSIRSSGETKYADSVKGRFTISRDNSKNTLYLQMNSLRAEDTAVYYCARGPLSDYYDSSGYYFDAFDIWGQGTMVTVSS VL: DIQMTQSPSSLSASAGDRVTITCRASQSISSYLNWYQQKPGKAPNLLIYTTSNLQGGVPSRFSGSGSGTDFTLTISSLQPEDFATYYCQQGYSFPLTFGGGTKVEIK , report its competition score (0 = does not compete significantly, 5 = competes strongly).
### Response 3
